- procedure.text: Solubility test
- Type: physicochemical
- study.conditions: physiological saline, shaken at 25° C., HPLC, read-out: Solubility in physiological saline
Quick list: solubility at 4 h per entry.

{"compound": "COc1cc(-c2cnn3c(O)ncnc23)ccc1[S+]([O-])c1ccccc1 (single isomer, unassigned) [Sample IV, dihydrate]", "solubility at 4 h": "≥ 500 mg/mL"}
{"compound": "COc1cc(-c2cnn3c([O-])ncnc23)ccc1[S+]([O-])c1ccccc1.O.O.[Na+] (single isomer, unassigned)", "solubility at 4 h": "≥ 500 mg/mL"}
